Ref: patent US20170145112A1

koff for assorted binders
- TEST SYSTEM: T1, Human complement Factor D, mature (human, UniProt P00746 27-253)
- T1 construct: In the TR-FRET assay the factor D was bought from Complement Technology; In the hemolysis assay it was the factor D of C1q-depleted human serum; also called human Factor D; hFD
- T1 sequence (P00746 27-253): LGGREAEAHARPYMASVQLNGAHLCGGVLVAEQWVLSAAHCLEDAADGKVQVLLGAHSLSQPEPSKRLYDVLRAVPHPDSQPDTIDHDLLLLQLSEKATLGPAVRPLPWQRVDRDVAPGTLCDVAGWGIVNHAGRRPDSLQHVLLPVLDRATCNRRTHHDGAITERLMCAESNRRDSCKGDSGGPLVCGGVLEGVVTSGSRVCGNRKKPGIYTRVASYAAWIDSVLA
- EXPERIMENT: SPR (Biacore T200): Fab captured with anti-huFab kit, human Factor D injected, 25 C, 1:1 model;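 note: sensorgrams were corrected by subtracting a blank injection of running buffer before fitting kinetic and affinity constants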
Param answer (str): number followed by unit.

Input line: Tell us which koff value is on record for hu20D12.v2.12 Fab (Fab, V domains shown) VH: EVQLVQSGAEVKKPGASVKVSCKASGYTFTSYYMYWVRQAPGQGLEWIGEINPYSGGTNFNEKFKSRATLTVDTSTSTAYLELSSLRSEDTAVYYCAREGGFAYWGQGTLVTVSS VL: DIQMTQSPSSLSASVGDRVTITCKASQNVDTDVAWFQQKPGKAPKGLIRSASSRYSGVPSRFSGSGSGTDFTLTISSLQPEDFATYYCQQYNNYPLTFGQGTKVEIKR
Output line: 0.00015 s⁻¹
